B1: FAM46C (parent)
chain: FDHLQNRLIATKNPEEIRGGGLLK

variants of: B1; assay: protein stability index of a GFP-peptide fusion (GPS, HEK-293T) (PSI 1-6); higher = more stable; details: c terminus: a fixed tail appended;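 also: lentivirally expressed fusions sorted by FACS into six bins by GFP to DsRed ratio, PSI derived from sequencing read proportions per bin multiplied by bin number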
Item-by-item account of protein stability index
Number only, no unit.

N13F yielded protein stability index of 2.96

// sample Q5C , its protein stability index was 3.96
